The values you see were collected from patent US20180369087A1.

- Procedure text: SNOBS stability in anhydrous formulation, HPLC
- Assay type: physicochemical
- Assay setup: 4 weeks/40° C.; composition of Table 5
Metric name: % SNOBS
Answer with the figure and its unit, nothing else.

# lookup: % SNOBS of CCCCCCCCC(=O)Oc1ccc(S(=O)(=O)[O-])cc1.[Na+] [SNOBS, sodium nonanoyloxybenzenesulfonate]
9.36%
